The reported numbers originate from PubChem BioAssay AID1159580.

Catalogue of normalized growth readings, one per entry.
- ASSAY NOTES: chemical genetic growth profiling, strain panel (AID 1159580);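 note: tested at 20 µM; growth read once vehicle control cultures reached saturation at 30 °C; 1 = growth at the plate median or of vehicle wells; lower values mean less growth of the strain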
- ASSAY CONTEXT: S. cerevisiae deletion strains, growth OD, locus YBL061C, strain skt5, stronger effect = lower value
In all, about 5,500 compounds went through this assay and about 2,000 (36%) were called active. Roughly 18% stayed inconclusive and do not appear here. This is one part of the list.
MEASURED PARAMETER: normalized growth

COMPOUND	MEASURED NUMBER
O=C1c2ccccc2C(=O)c2c1ccc(O)c2O	0.44
c1coc(CNc2ncnc3nc[nH]c23)c1	0.997
O=c1cc(-c2ccc(O)cc2)oc2cc(O[C@@H]3O[C@H](CO)[C@@H](O)[C@H](O)[C@H]3O[C@@H]3OC[C@](O)(CO)[C@H]3O)cc(O)c12	1.02
C[N+]1(C)CCc2cc3c(cc2[C@H]1C1OC(=O)c2c1ccc1c2OCO1)OCO3 (stereo partly specified)	1
Cn1cnc([N+](=O)[O-])c1Sc1ncnc2nc[nH]c12	1.03
Nc1ncnc2c1ncn2[C@@H]1O[C@H](CO)[C@@H](O)[C@@H]1O	1.01
COC(=O)C[C@H]1C(C)(C)[C@@H](OC(C)=O)[C@@H]2CC3C4CC(=O)O[C@@H](c5ccoc5)[C@]4(C)CCC3[C@@]1(C)C2=O (stereo partly specified)	1.02
C[N+]1(C)C2CC[C@H]1CC(OC(=O)C(O)c1ccccc1)C2 (stereo partly specified)	1
CCNc1nc(Cl)nc(NC(C)C)n1	1.01
O=c1[nH]c2ccccc2n1C1CCN(CCCC(c2ccc(F)cc2)c2ccc(F)cc2)CC1	0.967
COc1cc(O)c(C(C)=O)c(OC)c1	0.992
CC(=O)O[C@@H]1CC2C(C)(C)[C@H](O)C[C@H](O)[C@]2(C)C2CC[C@@]3(C)C(=CC(=O)O[C@H]3c3ccoc3)[C@@]21C (stereo partly specified)	1
Cc1c(N(C)CS(=O)(=O)O)c(=O)n(-c2ccccc2)n1C	1.01
Cc1nccc2c1[nH]c1ccccc12	0.975
c1ccc2c(c1)[nH]c1cnccc12	0.991
O=C1OC(=O)C2C3CCC(O3)C12 (stereo unspecified)	1.01
Nc1ncnc2nc[nH]c12	0.98
CC1=C(C(=O)O)N2C(=O)[C@@H](NC(=O)[C@H](N)C3=CCC=CC3)C2SC1 (stereo partly specified)	1.03
COc1ccc(Cc2nccc3cc(OC)c(OC)cc23)cc1OC	1
C[C@H]1C(=O)O[C@@H]2CCN3CC=C(COC(=O)[C@](C)(O)[C@]1(C)O)[C@H]23	0.995
CC(=O)OCC(=O)[C@@]1(O)CCC2C3CCC4=CC(=O)CC[C@]4(C)[C@@]3(F)[C@@H](O)C[C@@]21C (stereo partly specified)	1.01
CC(=O)OC1CCC23C(=O)OC45CCC(C6=CC(=O)OC6)C4(C)CCC2C5CCC3(O)C1 (stereo unspecified)	0.975
CC1(C)C[C@@H]2C(=O)CC[C@H]3O[C@]3(C)CC[C@H]21	1.03
O=C(CCCN1CC=C(n2c(=O)[nH]c3ccccc32)CC1)c1ccc(F)cc1	0.989
CN1CCN(CCCN2c3ccccc3Sc3ccc(Cl)cc32)CC1	0.888
CCOc1ccc(Cc2nccc3cc(OCC)c(OCC)cc23)cc1OCC	0.968

----------
- ASSAY NOTES: chemical genetic growth profiling, strain panel (AID 1159580)
- ASSAY CONTEXT: S. cerevisiae deletion strains, growth OD, locus YLR221C, strain rsa3, stronger effect = lower value
Among all 5,500 compounds or so, about 2,000 (36%) were called active. About 18% were inconclusive and are not listed. This is one part of the list.
MEASURED PARAMETER: normalized growth

> print(dat)
                                   compound  measured.number
1  C[C@]12C=CC(=O)C=C1CCC1C2CC[C@]2(C)C(=O)CCC12 (stereo partly specified)            0.977
2  Cn1nnnc1SCC1=C(C(=O)O)N2C(=O)C(NC(=O)C(OC=O)c3ccccc3)C2SC1 (stereo unspecified)            0.987
3  CCOC(=O)C1=C(C)NC(C)=C(C(=O)OC)C1c1cccc([N+](=O)[O-])c1 (stereo unspecified)             1.01
4                         COc1c(O)cc(O)cc1O            0.992
5     COc1ccc(Cc2nccc3cc(OC)c(OC)cc23)cc1OC             1.01
6                       FC(F)(F)COCC(F)(F)F            0.996

----------
Entries annotated with measured normalized growth
- ASSAY NOTES: chemical genetic growth profiling, strain panel (AID 1159580);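 note: tested at 20 µM; growth read once vehicle control cultures reached saturation at 30 °C; 1 = growth at the plate median or of vehicle wells; lower values mean less growth of the strain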
- ASSAY CONTEXT: S. cerevisiae deletion strains, growth OD, locus YJL095W, strain BCK1, stronger effect = lower value
The whole screen tested about 5,500 compounds, of which about 2,000 (36%) were called active. Inconclusive results (about 18%) are left out. The list shows a part of the results.
MEASURED PARAMETER: normalized growth

> print(dat)
                                   compound  measured.number
1  N#CC(C#N)=NNc1cc(C(F)(F)F)ccc1OCC(F)(F)F            0.533
2                          CN(C)c1nc(=S)ss1            0.327
3  CC(=O)OCC(=O)[C@@]1(O)CCC2C3CCC4=CC(=O)C=C[C@]4(C)[C@@]3(F)[C@@H](O)C[C@@]21C (stereo partly specified)             1.01
4  O=C(/C=C/C(=O)Oc1ccccc1C(=O)O)Oc1ccccc1C(=O)O             1.02
5    CC(=O)c1ccc2c(c1)N(CCCN(C)C)c1ccccc1S2                1
6  CCOC(=O)C1C(c2ccc(Br)cc2)C(C(=O)OCC)C(O)(C(F)(F)F)NC1(O)C(F)(F)F (stereo unspecified)             0.97

----------
- ASSAY NOTES: chemical genetic growth profiling, strain panel (AID 1159580);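 note: tested at 20 µM; growth read once vehicle control cultures reached saturation at 30 °C; 1 = growth at the plate median or of vehicle wells; lower values mean less growth of the strain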
- ASSAY CONTEXT: S. cerevisiae deletion strains, growth OD, locus YMR263W, strain SAP30, stronger effect = lower value
Out of some 5,500 compounds screened, about 2,000 (36%) were called active. Not shown: some 18% with an inconclusive outcome. This is one part of the list.
Entries annotated with measured normalized growth

MOLECULE	normalized growth
Cc1ccc(C(=O)NNC(=O)c2ccncc2)c(C)c1	0.965
O=c1oc(Cl)c(Cl)c2ccccc12	1
COc1ccc(/C(C)=N\NC2=NCCCN2)cc1	1
Cc1cccc(N(C)C(=S)Oc2ccc3ccccc3c2)c1	0.958
CCOc1nc2cccc(C(=O)OC(C)OC(=O)OC3CCCCC3)c2n1Cc1ccc(-c2ccccc2-c2nn[nH]n2)cc1 (stereo not given)	1
CC(=O)CSc1nsc(SCC(C)=O)c1C#N	0.996
O=C(CCCN1CC=C(n2c(=O)[nH]c3ccccc32)CC1)c1ccc(F)cc1	0.987
Cc1ccc(S(=O)(=O)/C(C#N)=N\O)cc1	0.932
CC(=O)OC1CCC2C3CCc4cc(O)ccc4C3CCC12C (stereo not given)	0.919
O=c1nc(-c2ccccc2)nc(-c2ccccc2)[nH]1	1.01
CC(C)(C)c1cc(C(C)(C)C)n(-c2ccc(N=Cc3cc(Br)cc(Br)c3O)cc2)n1	0.163
Cn1cnc([N+](=O)[O-])c1Sc1ncnc2nc[nH]c12	0.999
CC(=O)N[C@@H](CC(=O)O)C(=O)O	1.01
CCCN(CCC)[C@@H]1CCc2cccc(O)c2C1	1
Cc1c(-n2cccc2)cc2c(c1[N+](=O)[O-])C(C)(C)CC2(C)C	1
NC(=S)Nc1cc(Cl)ccc1Cl	0.969
O=C(NC(=S)Nc1ccc(Cl)cc1)c1ccc([N+](=O)[O-])o1	0.985
N#Cc1ccc2c(c1)N(CCCN1CCC(O)CC1)c1ccccc1S2	1.02
CN=C(N)NCCC[C@H](N)C(=O)O	0.99
Fc1ccc(C(c2ccc(F)cc2)N2CCN(C/C=C/c3ccccc3)CC2)cc1	0.968
COc1ccccc1N=C1SCC(=O)N1Cc1ccco1	0.987
S=c1nc(-c2ccccc2)[nH][nH]1	0.998
NC(=S)c1ccc[n+]([C@@H]2O[C@@H](COP(=O)([O-])OP(=O)(O)OC[C@H]3O[C@@H](n4cnc5c(N)ncnc54)C(OP(=O)(O)O)[C@H]3O)C(O)C2O)c1 (stereo not given in full)	0.995
O=C(c1ccc(Cl)cc1)N1CCN(c2ccc(C(F)(F)F)cn2)CC1	0.963
O=C1c2ccccc2C(=O)c2c1ccc(O)c2O	0.295

----------
# normalized growth listing for each entry below
- ASSAY NOTES: chemical genetic growth profiling, strain panel (AID 1159580);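 note: tested at 20 µM; growth read once vehicle control cultures reached saturation at 30 °C; 1 = growth at the plate median or of vehicle wells; lower values mean less growth of the strain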
- ASSAY CONTEXT: S. cerevisiae deletion strains, growth OD, locus YKL160W, strain elf1, stronger effect = lower value
Out of some 5,500 compounds screened, about 2,000 (36%) were called active. Inconclusive results (about 18%) are left out. Some of the results follow.
MEASURED PARAMETER: normalized growth

> print(dat)
                                   compound  measured.parameter  measured.number
1  O=C(CCCN1CC=C(n2c(=O)[nH]c3ccccc32)CC1)c1ccc(F)cc1   normalized growth            0.977
2               N#C/C(=C\c1ccc(O)cc1)C(=O)O   normalized growth            0.988
3  C[C@]12C=CC(=O)C=C1CCC1C2CC[C@]2(C)C(=O)CCC12 (stereo partly specified)   normalized growth            0.985
4  C[N+]1(C)CCc2cc3c(cc2[C@H]1C1OC(=O)c2c1ccc1c2OCO1)OCO3 (stereo partly specified)   normalized growth            0.989
5  CC1(C)C=Cc2c(cc3occ(-c4ccc5c(c4)OCO5)c(=O)c3c2O)O1   normalized growth             1.02
6  C[C@H]1C(=O)O[C@@H]2CCN3CC=C(COC(=O)[C@](C)(O)[C@]1(C)O)[C@H]23   normalized growth            0.991
